molecular target: purified HLA DRB4*0101 (Homo sapiens, UniProt P01903+P13762, G164S); construct: purified from EBV transformed homozygous cell lines or single MHC allele transfected 721.221, C1R, or fibroblast lines; made in house; experiment: HLA-DR radioligand binding inhibition assay, DRB4*0101; settings: IC50 nM purified HLA DRB4 *0101, purified HLA DRB4*0101
recordedEndpoint: IC50
Just so you know, I need the unit written after the number.

Field: example entries. Status: answers known.
molecule: CC(C)C[C@H](NC(=O)[C@@H](N)Cc1ccc(O)cc1)C(=O)N[C@@H](Cc1c[nH]c2ccccc12)C(=O)N[C@@H](Cc1c[nH]c2ccccc12)C(=O)N[C@H](C(=O)N[C@@H](CC(N)=O)C(=O)NCC(=O)N[C@@H](CCC(N)=O)C(=O)N[C@@H](CO)C(=O)N[C@@H](CC(C)C)C(=O)N1CCC[C@H]1C(=O)N[C@H](C(=O)N[C@@H](CO)C(=O)N1CCC[C@H]1C(=O)N[C@@H](CCCNC(=N)N)C(=O)O)C(C)C)C(C)C [Peptide 9019.0134]
testSystem: purified HLA DRB4*0101 (Homo sapiens, UniProt P01903+P13762, G164S)
IC50: 4300 nM

molecule: CC[C@H](C)[C@H](NC(=O)CNC(=O)[C@@H](NC(=O)[C@@H](NC(=O)[C@H](C)NC(=O)CNC(=O)[C@H](C)NC(=O)[C@H](CO)NC(=O)[C@H](CC(C)C)NC(=O)CNC(=O)[C@@H]1CCCN1C(=O)[C@@H](N)CO)[C@@H](C)O)C(C)C)C(=O)N[C@@H](CCSC)C(=O)N[C@H](C(=O)NCC(=O)O)[C@@H](C)CC [Peptide 9019.0144]
testSystem: purified HLA DRB4*0101 (Homo sapiens, UniProt P01903+P13762, G164S)
IC50: 2590 nM

Summary for this molecule, CSCC[C@H](NC(=O)[C@H](CC(N)=O)NC(=O)[C@H](CCC(N)=O)NC(=O)[C@H](CCC(N)=O)NC(=O)[C@H](C)NC(=O)[C@H](CCC(N)=O)NC(=O)[C@H](CCCNC(=N)N)NC(=O)[C@H](CC(C)C)NC(=O)[C@H](CO)NC(=O)[C@H](CO)NC(=O)[C@H](CCC(=O)O)NC(=O)[C@H](CC(C)C)NC(=O)[C@H](CC(C)C)NC(=O)[C@H](C)NC(=O)[C@@H](N)CCC(=O)O)C(=O)O [Peptide 9019.0014] : IC50 is 4030 nM

###

target: purified HLA DRB1*0301 (Homo sapiens, UniProt P01903+P01911, A100K/A102G/A103R/A169T/F55Y/I96L/K41T/L162R/M171V/P40S/Q125H/Q178H/Q39Y/R42S/S66N/T106N/T262R/W38E/Y61H); construct: purified from EBV transformed homozygous cell lines or single MHC allele transfected 721.221, C1R, or fibroblast lines; made in house; assay: HLA-DR radioligand binding inhibition assay, DRB1*0301; conditions: IC50 nM purified HLA DRB1 *0301, purified HLA DRB1*0301
recordedEndpoint: IC50 (nM)
One number for each entry, in nM.

CC[C@H](C)[C@H](NC(=O)[C@H](CS)NC(=O)[C@H](CC(C)C)NC(=O)[C@@H](N)CCCCN)C(=O)N[C@@H](Cc1ccc(O)cc1)C(=O)N[C@H](C(=O)N[C@@H](CC(=O)O)C(=O)N[C@@H](CC(N)=O)C(=O)N[C@@H](CO)C(=O)N[C@H](C(=O)N[C@@H](CCCNC(=N)N)C(=O)N1CCC[C@H]1C(=O)N[C@@H](CCC(=O)O)C(=O)N[C@@H](CCC(=O)O)C(=O)N[C@@H](CC(C)C)C(=O)O)[C@@H](C)CC)[C@@H](C)O [Peptide 9019.0159] has a reported IC50 of 64
